test system: U251 (glioblastoma); test: Proliferation EC50 on Matrigel vs SISgel; format: cell-based; conditions: U251 on Matrigel; read-out: EC50 Matrigel
property: EC50 (µM)
Value expressed in µM; do not type the unit.

Reported EC50, molecule O=S(=O)([O-])c1cc(O)c2c(O)c(N=Nc3cccc4ccccc34)c(S(=O)(=O)[O-])cc2c1.[Na+].[Na+] [DT320] : ____ 95

---

tested on: cancer cells on SISgel or plastic; test: Activity of leads and analogs on cancer cells grown on plastic vs SISgel (cell line not stated); format: cell-based; conditions: cells on plastic; read-out: IC50-p
Listed below: pIC50 values for each entry.
Reminder that pIC50 means the negative base-10 logarithm of the concentration expressed in mol/L.

Solved cases below.
CCN(Cc1cccc(S(=O)(=O)[O-])c1)c1ccc(C(=C2C=CC(=[N+](CC)Cc3cccc(S(=O)(=O)[O-])c3)C=C2)c2ccc(S(=O)(=O)[O-])cc2)cc1.[Na+].[Na+] : 3.20
O=S(=O)([O-])c1cc2cc(S(=O)(=O)O)ccc2c(N=Nc2c(O)cc(S(=O)(=O)[O-])c3ccccc23)c1O.[Na+].[Na+] [Hydroxy Naphthol Blue] : 3.84

Reported pIC50, molecule O=S(=O)(O)c1ccc2c(O)c(N=Nc3cccc4ccccc34)c(S(=O)(=O)O)cc2c1.[Na+] : ____ 4.64

Values from paper PMC4434572
